target: Voltage-gated inwardly rectifying potassium channel KCNH2 (Homo sapiens, UniProt Q12809); assay: Inhibitory activity against hERG by patch-clamp assay
Sequence (Q12809 whole entry): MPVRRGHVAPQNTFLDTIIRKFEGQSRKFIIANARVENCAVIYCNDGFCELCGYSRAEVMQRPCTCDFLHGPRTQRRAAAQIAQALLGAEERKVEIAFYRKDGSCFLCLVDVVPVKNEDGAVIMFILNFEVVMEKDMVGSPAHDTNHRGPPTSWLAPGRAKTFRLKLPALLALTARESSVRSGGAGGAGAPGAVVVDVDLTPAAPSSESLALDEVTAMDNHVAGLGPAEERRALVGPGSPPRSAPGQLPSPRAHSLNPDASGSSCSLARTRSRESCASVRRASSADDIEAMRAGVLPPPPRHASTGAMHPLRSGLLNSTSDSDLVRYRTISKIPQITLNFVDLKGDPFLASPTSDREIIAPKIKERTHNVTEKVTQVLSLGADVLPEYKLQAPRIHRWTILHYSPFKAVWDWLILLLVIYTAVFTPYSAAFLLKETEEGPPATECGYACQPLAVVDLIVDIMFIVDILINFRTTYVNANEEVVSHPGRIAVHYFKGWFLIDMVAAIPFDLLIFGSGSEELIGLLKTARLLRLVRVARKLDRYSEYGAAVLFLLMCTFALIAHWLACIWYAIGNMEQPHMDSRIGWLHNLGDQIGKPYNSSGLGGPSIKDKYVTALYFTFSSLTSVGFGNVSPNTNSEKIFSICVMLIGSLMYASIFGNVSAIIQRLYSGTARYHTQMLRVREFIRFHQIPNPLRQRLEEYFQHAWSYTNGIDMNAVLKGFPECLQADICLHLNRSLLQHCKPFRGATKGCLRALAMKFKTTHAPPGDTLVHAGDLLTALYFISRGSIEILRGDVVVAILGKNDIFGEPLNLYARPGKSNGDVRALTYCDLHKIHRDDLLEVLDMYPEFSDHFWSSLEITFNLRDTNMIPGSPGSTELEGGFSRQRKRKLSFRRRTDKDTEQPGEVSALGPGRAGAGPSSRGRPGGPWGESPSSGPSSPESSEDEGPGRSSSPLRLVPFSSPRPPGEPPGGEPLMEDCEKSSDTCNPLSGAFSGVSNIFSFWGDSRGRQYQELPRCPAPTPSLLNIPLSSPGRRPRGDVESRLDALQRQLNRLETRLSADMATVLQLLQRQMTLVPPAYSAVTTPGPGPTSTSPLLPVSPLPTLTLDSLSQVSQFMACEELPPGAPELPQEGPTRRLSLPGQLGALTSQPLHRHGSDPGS
recorded_endpoint: IC50 (µM)
Please state the figure in µM; there is no need to write the unit.

Reference set, count: 2
>  <structure_smiles_string>
Cc1cc2c(F)c(Oc3ncnn4cc(OC[C@@H](C)O)c(C)c34)ccc2[nH]1

>  <uom>
µM

>  <IC50>
18

$$$$
>  <structure_smiles_string>
COC[C@@H](O)COc1cn2ncnc(Oc3ccc4[nH]c(C)cc4c3F)c2c1C

>  <uom>
µM

>  <IC50>
18

$$$$

Please examine the following record next.
Q: State the recorded IC50 for this entry: Cc1cc2c(F)c(Oc3ncnn4cc(OCCCS(C)(=O)=O)c(C)c34)ccc2[nH]1
A: 20

====

test: AUC in mice at 50 mg/kg after 4 hrs; format: ADME, organism-based; parameters: time < 4 hr, dose 50 mg/kg; conditions: mouse, plasma
recorded_endpoint: AUC at 4 h (µM·h)
// note: answer is a bare numeric in µM·h

>  <molecule>
Cc1cc2c(F)c(Oc3ncnn4cc(OCCN5CCC(O)C5)c(C)c34)ccc2[nH]1 (single isomer, unassigned)

>  <AUC at 4 h / µM·h>
9.9

$$$$
>  <molecule>
Cc1cc2c(F)c(Oc3ncnn4cc(OCCC5CCN(C)CC5)c(C)c34)ccc2[nH]1

>  <AUC at 4 h / µM·h>
2.2

$$$$
>  <molecule>
Cc1cc2c(F)c(Oc3ncnn4cc(OC[C@@H](C)O)c(C)c34)ccc2[nH]1 [BRIVANIB]

>  <AUC at 4 h / µM·h>
136

$$$$
>  <molecule>
Cc1cc2c(F)c(Oc3ncnn4cc(OC[C@H](C)O)c(C)c34)ccc2[nH]1

>  <AUC at 4 h / µM·h>
146

$$$$
>  <molecule>
Cc1cc2c(F)c(Oc3ncnn4cc(OCCCN5CCCC5)c(C)c34)ccc2[nH]1

>  <AUC at 4 h / µM·h>
20.5

$$$$

Q: # AUC at 4 h lookup, item COC[C@@H](O)COc1cn2ncnc(Oc3ccc4[nH]c(C)cc4c3F)c2c1C
A: 128

Q: What value of AUC at 4 h has been reported for the following molecule? Cc1cc2c(F)c(Oc3ncnn4cc(O)c(C)c34)ccc2[nH]1
A: 0.2

Q: What AUC at 4 h value was documented for this molecule, Cc1cc2c(F)c(Oc3ncnn4cc(OCCCN5CCCCC5)c(C)c34)ccc2[nH]1 ?
A: 14

Q: // returns reported AUC at 4 h for input Cc1cc2c(F)c(Oc3ncnn4cc(OCCCS(C)(=O)=O)c(C)c34)ccc2[nH]1
A: 185

Q: Any idea what AUC at 4 h was measured for Cc1cc2c(F)c(Oc3ncnn4cc(OCCCNS(C)(=O)=O)c(C)c34)ccc2[nH]1 ?
A: 96

====

assay: AUC in rat at 200 mg/kg as micronized suspension after 24 hrs; format: ADME, organism-based; set-up: time < 24 hr, dose 200 mg/kg; settings: plasma
recorded_endpoint: AUC at 24 h
Answers without a unit are incomplete; give the number and then its unit.

Q: Can you look up the measured AUC at 24 h of Cc1cc2c(F)c(Oc3ncnn4cc(OC[C@@H](C)O)c(C)c34)ccc2[nH]1 for me?
A: 7.61 µM·h

====

assay: AUC in BALB/c mouse at 60 mg/kg, po after 24 hrs; assay type: ADME, organism-based; set-up: time < 24 hr, dose 60 mg/kg, route oral; conditions: plasma
recorded_endpoint: AUC at 24 h (µM·h)
Output spec: scalar in µM·h, unitless text.

Q: Please look up its AUC at 24 h: Cc1cc2c(F)c(Oc3ncnn4cc(OC[C@@H](C)O)c(C)c34)ccc2[nH]1 [BRIVANIB]
A: 224

====

test: Cmax in rat at 25 mg/kg as micronized suspension after 24 hrs; assay type: ADME, organism-based; design: dose 25 mg/kg; conditions: in vivo
recorded_endpoint: Cmax (nM)
Write the answer as a number in nM, unit excluded.

Q: Data request, read-out Cmax, for Cc1cc2c(F)c(Oc3ncnn4cc(OC[C@@H](C)O)c(C)c34)ccc2[nH]1
A: 550

====

assay: Systemic clearance in BALB/c mouse at 10 mg/kg, iv after 24 hrs; format: ADME, organism-based; design: dose 10 mg/kg, route intravenous; conditions: in vivo
recorded_endpoint: clearance
State the result as a value with its unit after it.

Q: Entry Cc1cc2c(F)c(Oc3ncnn4cc(OC[C@@H](C)O)c(C)c34)ccc2[nH]1 [BRIVANIB] has what clearance?
A: 9.3 mL/min/kg

====

inhibition at 1 µM values by entry
biological target: hERG (Homo sapiens, UniProt Q12809); assay: Inhibitory activity against hERG by patch-clamp assay at 1 uM; assay type: functional
Sequence (Q12809 whole entry): as above
Your answer should be a plain number; it is taken to be in %.

For orientation, consider the following solved cases.
>  <molecule>
Cc1cc2c(F)c(Oc3ncnn4cc(OCCCN5CCCC5)c(C)c34)ccc2[nH]1

>  <experimental_target>
hERG (Homo sapiens, UniProt Q12809)

>  <recorded_endpoint>
inhibition at 1 µM

>  <uom>
%

>  <value_reported>
66

$$$$
>  <molecule>
Cc1cc2c(F)c(Oc3ncnn4cc(OCCN5CCC(O)C5)c(C)c34)ccc2[nH]1 (single isomer, unassigned)

>  <experimental_target>
hERG (Homo sapiens, UniProt Q12809)

>  <recorded_endpoint>
inhibition at 1 µM

>  <uom>
%

>  <value_reported>
38

$$$$

Turning now to a further record.
Q: For the molecule shown here, Cc1cc2c(F)c(Oc3ncnn4cc(OCCCN5CCCCC5)c(C)c34)ccc2[nH]1 , give the reported inhibition at 1 µM.
A: 70

====

experiment: AUC in rat at 25 mg/kg as micronized suspension after 24 hrs; format: ADME, organism-based; design: time < 24 hr, dose 25 mg/kg; settings: plasma
recorded_endpoint: AUC at 24 h (µM·h)
Field: numeric (µM·h). Do not append units.

Q: Quick one: AUC at 24 h for Cc1cc2c(F)c(Oc3ncnn4cc(OC[C@@H](C)O)c(C)c34)ccc2[nH]1 [BRIVANIB] ?
A: 3.35

====

assay: Half life in BALB/c mouse at 60 mg/kg, po after 24 hrs; format: ADME, organism-based; parameters: dose 60 mg/kg, route oral; conditions: in vivo
recorded_endpoint: half-life (h)
Quick reminder: number only, in h, skip the unit.

Q: # query: half-life of entry Cc1cc2c(F)c(Oc3ncnn4cc(OC[C@@H](C)O)c(C)c34)ccc2[nH]1 [BRIVANIB]
A: 3.6

====

test: Cmax in mice at 50 mg/kg after 4 hrs; format: ADME, organism-based; design: dose 50 mg/kg; settings: mouse, in vivo
recorded_endpoint: log10(Cmax) (log10 of the value in µM)
All values: log10 Cmax [µM].

Examples from the recorded data:
>  <compound>
Cc1cc2c(F)c(Oc3ncnn4cc(OC[C@@H](C)O)c(C)c34)ccc2[nH]1 [BRIVANIB]

>  <log10(Cmax)>
1.61

$$$$
>  <compound>
Cc1cc2c(F)c(Oc3ncnn4cc(OCCCNS(C)(=O)=O)c(C)c34)ccc2[nH]1

>  <log10(Cmax)>
1.43

$$$$
>  <compound>
Cc1cc2c(F)c(Oc3ncnn4cc(O)c(C)c34)ccc2[nH]1

>  <log10(Cmax)>
-0.70

$$$$
>  <compound>
Cc1cc2c(F)c(Oc3ncnn4cc(OC[C@H](C)O)c(C)c34)ccc2[nH]1

>  <log10(Cmax)>
1.75

$$$$
>  <compound>
COC[C@@H](O)COc1cn2ncnc(Oc3ccc4[nH]c(C)cc4c3F)c2c1C

>  <log10(Cmax)>
1.61

$$$$
>  <compound>
Cc1cc2c(F)c(Oc3ncnn4cc(OCCCN5CCCCC5)c(C)c34)ccc2[nH]1

>  <log10(Cmax)>
0.62

$$$$

Now examine the next entry.
Q: Entry Cc1cc2c(F)c(Oc3ncnn4cc(OCCCN5CCCC5)c(C)c34)ccc2[nH]1 : reported log10(Cmax) = ?
A: 0.77

====

assay: Volume of distribution in BALB/c mouse at 10 mg/kg, iv after 24 hrs; assay type: ADME, organism-based; parameters: dose 10 mg/kg, route intravenous; conditions: in vivo, read-out: Vss
recorded_endpoint: Vd
Form entry: enter the amount, then its unit.

Q: Given Cc1cc2c(F)c(Oc3ncnn4cc(OC[C@@H](C)O)c(C)c34)ccc2[nH]1 , state its recorded Vd.
A: 2 L/kg

====

test: AUC in BALB/c mouse at 10 mg/kg, iv after 24 hrs; format: ADME, organism-based; set-up: time < 24 hr, dose 10 mg/kg, route intravenous; conditions: plasma
recorded_endpoint: AUC at 24 h (µM·h)
Number only, in µM·h; omit the unit.

Q: Return reported AUC at 24 h; argument: Cc1cc2c(F)c(Oc3ncnn4cc(OC[C@@H](C)O)c(C)c34)ccc2[nH]1
A: 49
